- TEST TARGET: T1, mouse GPRC5D (mouse, UniProt Q9JIL6 1-344)
- T1 construct: whole, on cells; HEK293T-mGPRC5D cells; also called mGPRC5D; murine GPRC5D
- T1 sequence (looked up): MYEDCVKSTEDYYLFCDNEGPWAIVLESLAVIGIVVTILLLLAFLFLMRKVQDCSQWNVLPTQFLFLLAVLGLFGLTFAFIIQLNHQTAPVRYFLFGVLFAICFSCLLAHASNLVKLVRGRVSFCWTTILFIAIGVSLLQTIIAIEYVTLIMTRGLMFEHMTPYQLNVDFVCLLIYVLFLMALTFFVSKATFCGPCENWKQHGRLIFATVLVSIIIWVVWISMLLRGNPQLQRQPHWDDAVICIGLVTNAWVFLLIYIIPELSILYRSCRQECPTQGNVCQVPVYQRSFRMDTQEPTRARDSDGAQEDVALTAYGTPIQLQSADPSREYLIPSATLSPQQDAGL
- EXPERIMENTAL PROTOCOL: FACS, HEK293T-mGPRC5D cells
OBSERVABLE: % Positive (%)
Give a bare numeral; the unit % is implied.

BINDER	% Positive (%)
108C4C12 (antibody, V domains shown, Mouse monoclonal antibody from hybridoma subclone) VH: EVQLQQSGPELVKPGASVKMSCKASGYTFTSYVIHWVKQKTGQGLEWIGYFNPYNDGTKYNEEFKGKATLTSDKSSNTAYMELNSLTSDDSAVYFCARGGVRRYFDVWGAGTTVTVSS VL: DIQMTQSPSSLSASLGERVSLTCRASQDIGSNLNWLQQEPDGTIKRLIYATFGLDSGVPKRFSGSRSGSDYSLTISSLESEDFVDYYCQQYASFPYTFGGGTKLEIK	65.7

[in] // returns reported % Positive for input 101B3G3 (antibody, V domains shown, Mouse monoclonal antibody from hybridoma subclone) VH: EVQLQQSGPELVKPGASMKISCKASGYSFTGYTMNWVKQSHGKNLEWIGLINPYNGGTRYNQKFKDKATLTVDKSSSTAYMELLSLTSEDSAVYYCARWLLRYAMDYWGQGTSVTVSS VL: DIVMTQSQKFMSTSVGDRVSITCKASQNVGNAVAWYQQKPGHSPKLLISSASNRKNGVPDRFTGSGSGTDFTLTVSNMQSEDLADYFCQQYSDSSWTFGGGTKLEIK
[out] 85.2
